The values you see were collected from patent US20130330346A1.

subject of test: T1, Human CXCR2 (human, UniProt P25025 1-360)
T1 sequence: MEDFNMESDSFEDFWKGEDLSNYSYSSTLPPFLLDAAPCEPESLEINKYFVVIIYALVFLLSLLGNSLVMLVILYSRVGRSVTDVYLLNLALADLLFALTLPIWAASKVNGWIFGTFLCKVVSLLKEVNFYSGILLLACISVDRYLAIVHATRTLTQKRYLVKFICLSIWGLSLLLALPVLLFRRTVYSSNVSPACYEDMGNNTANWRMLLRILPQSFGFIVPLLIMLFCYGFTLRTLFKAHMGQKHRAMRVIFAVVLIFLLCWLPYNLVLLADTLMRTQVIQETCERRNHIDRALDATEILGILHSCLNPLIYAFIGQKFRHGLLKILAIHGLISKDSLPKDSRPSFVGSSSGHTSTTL
method summary: cell-based or functional assay
observed property: [35S]GTPγS IC50 (IL-8) (nM)
A number alone suffices; assume nM.

query: Which [35S]GTPγS IC50 (IL-8) value belongs to CXCR20035 (other, Biparatopic: two VHH joined by a GlySer linker; also called 54B12-35GS-163E3; 54B12-163E3; not shown: C-terminal c-myc tag and His6 tag coded by pAX100) EVQLVESGGGLVQAGGSLTLSCAVSGSTFRINTMGWYRRAPGKQRELVAARDRGGYINYVDSVKGRFTVSRDNAKPTMYLQMNSLKPEDTAVYYCHAGTQDRTGRNFDRWGQGTQVTVSSGGGGSGGGGSGGGGSGGGGSGGGGSGGGGSGGGGSEVQLVESGGGLVQPGGSLRLSCVASGRIFSSNAMGWFRQAPGKEREFVAAITWRSGGSAYYADSAKGRFTISRDNAKNTVYLQMNSLKPEDTAVYYCAAGGSSWLSFPPDYWGQGTQVTVSS ?
result: 0.717
